Listing of recorded Population Pyknosed Nuclei (%) by entry.
Test system: Fibroblast
Protocol Details: Multiplex assay against human fibroblast
Type: toxicity, cell-based
Experimental Setup: 48 h, 1 µM, compound concentration 1 uM, replicate 1
Measure Name: Population Pyknosed Nuclei (%)

compound=Nc1nc2c(c(N3CCNCC3)n1)CCC1=C2[C@@H]2CCCC[C@@H]2O1 target_of_assay=Fibroblast observed_measurement=10
compound=CC(=O)c1cc(-c2cc(C(=O)NC3CC3)ccc2C)c2ncccn12 target_of_assay=Fibroblast observed_measurement=13
compound="Cc1nc(Cc2cccc(C(F)(F)F)c2)sc1-c1ccc(C(N)=O)nc1 [TP-024n]" target_of_assay=Fibroblast observed_measurement=20
compound=Cc1cc2c(cc1N1C(=O)c3cccc4c(CCCO)ccc(c34)C1=O)n(C)c(=O)n2C target_of_assay=Fibroblast observed_measurement=22
compound=CCCn1c(=O)c2[nH]c(C34CC5CC(CC3C5)C4)nc2n(CCC)c1=O target_of_assay=Fibroblast observed_measurement=15
compound=CCc1cc2c(cc1CC)CC(NC[C@H](O)c1ccc(O)c3[nH]c(=O)ccc13)C2 target_of_assay=Fibroblast observed_measurement=6
compound=CC(C)N1CCC(C)(C)c2cc(C#Cc3ccc(C(=O)O)cc3)ccc21 target_of_assay=Fibroblast observed_measurement=6
